Reference for the values: PubChem BioAssay

protocol summary: cell viability in Huh7 cells, primary screen, cytotoxicity control for HCV replication inhibitor project, CellTiter-Glo luminescence, basal, 48 h (AID 1143);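 further: Huh7 hepatoma cells carrying a hepatitis C replication reporter with no stimulus; test concentration not given here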
study conditions: Huh7 HCV replicon, higher = more signal, called active from +8 up or from −8 down
Kindly state z-score for each of the entries shown.
Write the value as a bare number.

# get_value(readout='z-score', item= `CN(C)CCCC[C@@H]1NC(=O)[C@@H]2C[C@H](C(=O)NCCCCCCN)[C@H](c3cccc(OCCO)c3)N2C1=O` )
-0.96

Could you share which z-score value was measured for CC(CO)N1C(=O)[C@@H]2C3C(=O)OCCC/C=C\[C@H]3OC23C=CCN(C(C)(C)C)C(=O)[C@@H]13 (some centres undefined) ?
0.559

What value of z-score has been reported for the following compound? `O=C(NCCN1CCOCC1)[C@@H]1c2ccccc2C(=O)N(C2CCCCC2)[C@H]1c1ccc(CO)cc1`
-0.742

What does the data say about its z-score? Entry: `O=C1C[C@@](C(=O)NCCN2CCOCC2)(c2ccc([N+](=O)[O-])cc2)[C@@H](c2ccc(CO)cc2I)N1CC12CC3CC(CC(C3)C1)C2`
-5.9

Entry under review: `CC(C)[Si]1(C(C)C)O[C@@H](c2ccccc2)c2cc(-c3ccc(-c4ccc(Cl)c(Cl)c4)o3)nc(-c3ccccc3)c21` . Reported z-score?
-0.62

// lookup z-score for `COc1ccc(C#Cc2ccc3c(c2)[C@]2(C(=O)N3)[C@H](c3ccccc3OCCO)N3[C@H](c4ccccc4)[C@H](c4ccccc4)OC(=O)[C@H]3[C@@H]2C(=O)Nc2nc3ccccc3s2)cc1`
-1.62

Report z-score for `COCCOC(=O)N1C(=O)[C@@]2(c3ccccc31)[C@H](C(=O)N1CCc3cc(OC)c(OC)cc3C1)[C@H]1C(=O)O[C@H](c3ccccc3)[C@H](c3ccccc3)N1[C@@H]2c1ccc(OCCO)cc1` please.
-0.704

Would you mind telling me what z-score value was observed for C=C(C)[C@@H]1CC=C(C(O)C2C=CC3C(=O)N(C)C(=O)C3N2Nc2ccccc2)CC1 (some centres undefined) ?
0.435

Entry `O=C1O[C@@H](c2ccccc2)[C@@H](c2ccccc2)N2[C@@H](c3ccccc3OCCO)[C@]3(C(=O)Nc4ccc(C#CC5=CCCCC5)cc43)[C@@H](C(=O)N3CCCCCCC3)[C@H]12` : reported z-score = ?
-4.53
